The origin of these recorded values is ChEMBL document CHEMBL5356937.

Target System: Serine/threonine-protein kinase haspin (Homo sapiens) (UniProt Q8TF76)
Sequence (Q8TF76 whole entry): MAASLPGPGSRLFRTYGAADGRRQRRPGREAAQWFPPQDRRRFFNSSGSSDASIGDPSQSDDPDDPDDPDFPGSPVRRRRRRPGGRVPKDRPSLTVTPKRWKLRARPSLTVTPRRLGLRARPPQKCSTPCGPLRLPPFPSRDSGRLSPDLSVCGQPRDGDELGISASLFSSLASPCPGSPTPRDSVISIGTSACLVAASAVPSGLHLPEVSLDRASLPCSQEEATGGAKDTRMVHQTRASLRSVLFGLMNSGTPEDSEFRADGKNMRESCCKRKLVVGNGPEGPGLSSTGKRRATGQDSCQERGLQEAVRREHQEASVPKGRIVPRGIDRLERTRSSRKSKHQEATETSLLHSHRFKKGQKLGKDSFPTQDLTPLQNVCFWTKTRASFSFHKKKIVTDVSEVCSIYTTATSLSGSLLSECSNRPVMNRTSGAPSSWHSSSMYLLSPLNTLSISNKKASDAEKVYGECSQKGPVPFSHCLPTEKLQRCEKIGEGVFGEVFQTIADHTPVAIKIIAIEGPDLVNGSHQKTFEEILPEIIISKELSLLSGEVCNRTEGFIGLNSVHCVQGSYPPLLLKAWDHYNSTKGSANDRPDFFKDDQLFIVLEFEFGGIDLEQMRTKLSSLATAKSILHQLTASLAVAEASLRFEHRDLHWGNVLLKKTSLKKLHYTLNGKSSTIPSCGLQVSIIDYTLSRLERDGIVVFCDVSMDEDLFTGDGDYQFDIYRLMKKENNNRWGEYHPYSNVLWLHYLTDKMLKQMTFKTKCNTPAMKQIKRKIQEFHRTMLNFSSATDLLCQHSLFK
Method Summary: Inhibition of haspin (unknown origin) at 50 nM by ADP Glo kinase assay relative to control
Measured Parameter: inhibition (%)

// worked examples, inhibition included
O=C(NCc1ncc[nH]1)c1ccc(-c2nc3ccc4[nH]ncc4c3c3c2CCCC3)c(F)c1 :: 53
O=C(NCc1nccs1)c1ccc(-c2nc3ccc4[nH]ncc4c3c3c2CCCC3)cc1 :: 68
O=C(NCc1ncc[nH]1)c1ccc(-c2nc3ccc4[nH]ncc4c3c3c2CCCC3)cc1F :: 76
Cc1c[nH]c(CNC(=O)c2ccc(-c3nc4ccc5[nH]ncc5c4c4c3CCCC4)cc2)n1 :: 97
O=C(NCCn1ccnc1)c1ccc(-c2nc3ccc4[nH]ncc4c3c3c2CCCC3)cc1 :: 33
O=C(NCc1ncc[nH]1)c1ccc(-c2nc3ccc4[nH]ncc4c3c3c2CCCC3)cc1 :: 77
O=C(NCc1nnn[nH]1)c1ccc(-c2nc3ccc4[nH]ncc4c3c3c2CCCC3)cc1 :: 57
Cn1ccnc1CNC(=O)c1ccc(-c2nc3ccc4[nH]ncc4c3c3c2CCCC3)cc1 :: 26
O=C(NCCc1ncc[nH]1)c1ccc(-c2nc3ccc4[nH]ncc4c3c3c2CCCC3)cc1 :: 78
O=C(NCc1c[nH]cn1)c1ccc(-c2nc3ccc4[nH]ncc4c3c3c2CCCC3)cc1 :: 54

(1) FC(F)(F)c1n[nH]cc1-c1nc2ccc3[nH]ncc3c2c2c1CCCC2
(2) CCc1nc(C(N)=O)c(Nc2ccc(N3CCC(N4CCN(C)CC4)CC3)c(OC)c2)nc1NC1CCOCC1 [GILTERITINIB]
Enquiry: Short answer wanted: higher inhibition, 1 or 2 ? Indicate your choice by writing its label.
Return: 1
